Target: T1, CAPRIN-1 protein expressed on the membrane surface of human cancer cells (human, UniProt Q14444 2-709)
T1 sequence (looked up): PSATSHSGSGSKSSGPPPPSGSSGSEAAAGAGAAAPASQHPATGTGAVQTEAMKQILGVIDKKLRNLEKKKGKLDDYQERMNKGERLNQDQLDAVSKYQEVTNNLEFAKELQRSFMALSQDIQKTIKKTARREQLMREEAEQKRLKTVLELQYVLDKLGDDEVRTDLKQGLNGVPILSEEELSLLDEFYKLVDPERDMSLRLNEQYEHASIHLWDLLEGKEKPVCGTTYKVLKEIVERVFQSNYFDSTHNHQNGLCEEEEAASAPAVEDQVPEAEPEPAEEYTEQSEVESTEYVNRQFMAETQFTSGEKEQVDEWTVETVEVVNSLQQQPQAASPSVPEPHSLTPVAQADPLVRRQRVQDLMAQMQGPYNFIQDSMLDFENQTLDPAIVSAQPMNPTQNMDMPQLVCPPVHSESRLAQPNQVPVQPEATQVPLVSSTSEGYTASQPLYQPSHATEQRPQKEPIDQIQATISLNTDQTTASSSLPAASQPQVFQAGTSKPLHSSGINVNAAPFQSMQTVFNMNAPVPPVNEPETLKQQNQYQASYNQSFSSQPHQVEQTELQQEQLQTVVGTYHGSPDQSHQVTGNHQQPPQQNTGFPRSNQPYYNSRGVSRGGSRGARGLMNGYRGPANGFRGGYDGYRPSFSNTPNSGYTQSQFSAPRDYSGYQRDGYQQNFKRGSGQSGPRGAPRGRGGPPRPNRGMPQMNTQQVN
Test: cell-based or functional assay
# key: entry, value: ADCC cytotoxic activity (51Cr release) on OE33
Measured Parameter: ADCC cytotoxic activity (51Cr release) on OE33

- humanized antibody #4 (antibody, V domains shown) VH: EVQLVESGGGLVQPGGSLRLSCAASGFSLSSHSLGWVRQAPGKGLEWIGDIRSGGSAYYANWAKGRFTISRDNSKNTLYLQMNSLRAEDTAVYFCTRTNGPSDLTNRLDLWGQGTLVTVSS VL: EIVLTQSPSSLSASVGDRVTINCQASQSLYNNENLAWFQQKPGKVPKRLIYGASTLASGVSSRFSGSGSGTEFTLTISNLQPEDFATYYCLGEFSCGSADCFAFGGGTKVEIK: ≥ 33%
- humanized antibody #6 (antibody, V domains shown) VH: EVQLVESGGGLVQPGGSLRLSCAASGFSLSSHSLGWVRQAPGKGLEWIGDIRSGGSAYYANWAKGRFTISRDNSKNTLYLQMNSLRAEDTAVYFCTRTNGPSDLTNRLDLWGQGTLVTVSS VL: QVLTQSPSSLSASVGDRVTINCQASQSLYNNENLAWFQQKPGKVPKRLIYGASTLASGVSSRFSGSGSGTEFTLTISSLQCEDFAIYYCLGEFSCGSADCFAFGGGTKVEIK: ≥ 35%
- humanized antibody #3 (antibody, V domains shown) VH: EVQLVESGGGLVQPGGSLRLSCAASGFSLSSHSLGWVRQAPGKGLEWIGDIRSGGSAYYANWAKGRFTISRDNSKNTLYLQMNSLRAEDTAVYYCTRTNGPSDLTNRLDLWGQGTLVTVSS VL: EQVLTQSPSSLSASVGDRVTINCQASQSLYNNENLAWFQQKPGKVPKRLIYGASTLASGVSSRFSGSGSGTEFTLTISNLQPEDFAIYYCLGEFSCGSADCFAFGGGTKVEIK: ≥ 33%
